# reported h-α2A pIC50; entries follow
- systemName: human adrenergic-α2A receptor (Homo sapiens)
- Construct: expressed in transfected cells; host or cells: CHO cells, stably transfected; membrane preparation
- Sequence (P08913 1-465): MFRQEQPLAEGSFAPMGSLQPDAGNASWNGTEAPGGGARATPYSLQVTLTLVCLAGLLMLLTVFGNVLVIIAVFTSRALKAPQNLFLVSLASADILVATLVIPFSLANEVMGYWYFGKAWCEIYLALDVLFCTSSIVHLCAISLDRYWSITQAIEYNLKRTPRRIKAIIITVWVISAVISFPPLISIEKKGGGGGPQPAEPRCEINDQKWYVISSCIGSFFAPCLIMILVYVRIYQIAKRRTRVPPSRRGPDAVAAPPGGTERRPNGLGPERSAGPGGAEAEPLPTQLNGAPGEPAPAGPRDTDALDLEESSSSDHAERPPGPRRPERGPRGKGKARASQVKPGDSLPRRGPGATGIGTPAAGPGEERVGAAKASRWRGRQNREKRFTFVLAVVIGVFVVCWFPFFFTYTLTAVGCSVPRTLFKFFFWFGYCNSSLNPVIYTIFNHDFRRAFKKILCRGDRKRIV
- assayNotes: Radioligand binding experiment for hα2A-adrenergic receptor ([3H]raulwolscine)
- assayConditions: [3H]raulwolscine 1 nM, 60 minutes at 25° C.
Enter a number only.

> print(dat)
                                   compound  obsvalue
1  O=C(O)C(F)(F)F.O=C1c2ccccc2C(=O)N1CCCn1ccnc(NCCN2CCN(Cc3ccc4ccccc4c3)CC2)c1=O       6.6

The value of h-α2A pIC50 measured for the compound `O=C(NCc1ccc(-n2ccnc(NC3CCN(Cc4ccc5ccccc5c4)CC3)c2=O)cc1)c1ccc(F)cc1` turned out to be 6.2

The value of h-α2A pIC50 measured for the compound `O=C(NCc1ccc(-n2ccnc(NC3CCN(Cc4ccc5ccccc5c4)CC3)c2=O)cc1)Nc1ccccc1` turned out to be 6.3

The value of h-α2A pIC50 measured for the compound O=C(NCc1ccc(-n2ccnc(NC3CCN(Cc4ccc5ccccc5c4)CC3)c2=O)cc1)C1CCCO1 (racemic) turned out to be 6.2
